src = ChEMBL document CHEMBL3988442

targetOrTestSystem: Histidine--tRNA ligase (Leishmania infantum) (UniProt A4I591)
Sequence (whole entry): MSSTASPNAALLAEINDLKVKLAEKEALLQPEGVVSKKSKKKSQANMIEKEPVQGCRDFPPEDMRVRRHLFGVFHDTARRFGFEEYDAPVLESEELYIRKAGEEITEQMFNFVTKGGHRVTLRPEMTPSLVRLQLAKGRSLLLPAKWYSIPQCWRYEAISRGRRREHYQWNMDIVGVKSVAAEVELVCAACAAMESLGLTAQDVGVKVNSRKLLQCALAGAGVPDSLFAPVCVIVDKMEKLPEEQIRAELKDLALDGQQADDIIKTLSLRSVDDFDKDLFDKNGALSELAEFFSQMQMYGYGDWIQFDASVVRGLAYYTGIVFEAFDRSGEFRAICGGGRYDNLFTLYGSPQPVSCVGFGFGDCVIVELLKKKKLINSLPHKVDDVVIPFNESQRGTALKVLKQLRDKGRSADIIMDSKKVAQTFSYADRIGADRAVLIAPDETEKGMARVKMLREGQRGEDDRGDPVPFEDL
assayMethodText: Leishmania infantum Histidine tRNA synthetase (LdHisRS)
Assay type: functional
Set-up: scale not given: in the data most compounds retested in dose-response had high values
testSettings: 30 µM
The campaign covered roughly 69,000 compounds. About 420 (0.61%) showed an effect of 50% or more. For the sample, strong results were picked, then their nearest neighbours and some compounds at random.
valueType: Percent Effect (%)

INSERT INTO results (molecule, unitlabel, measuredresult) VALUES
  ('CNC(=O)[C@@]12CCCN(c3ncccn3)[C@@H]1CN(c1ncc(F)cn1)C2', '%', 16.8),
  ('Cc1ccc(-c2ncc(C(=O)N3CCCN4CCC[C@H]4C3)c(O)n2)cc1', '%', 11),
  ('O=C([C@H]1COC[C@H]2CN(CC3CC3)C[C@H]21)N1CCOCC1', '%', 10.3),
  ('Cc1noc(C(C)Nc2ccc3c(c2)CCC3)n1 (stereo unspecified)', '%', 9.38),
  ('N#Cc1cccc(CN2C[C@@H](NC(=O)C3CC3)[C@H]3OCCC[C@H]32)c1', '%', -2.75),
  ('CC(C)c1nc2cc(NC(=O)Cn3ccc(=O)[nH]c3=O)ccc2o1', '%', 14);

====

targetOrTestSystem: Histidine--tRNA ligase (Leishmania infantum) (UniProt A4I591)
assayMethodText: Leishmania infantum Histidine tRNA synthetase (LdHisRS)
Assay type: functional
Design: scale not given: in the data most compounds retested in dose-response had high values
testSettings: 30 µM
Among all 69,000 compounds or so, about 420 (0.61%) showed an effect of 50% or more. The list comes from a sample in which strong results are over-represented; it also holds close analogues and randomly drawn compounds.
Assign fulfilled to entries whose Percent Effect meets or exceeds 20%; assign not fulfilled to the rest.

INSERT INTO results (compound, class) VALUES
  ('CCS(=O)(=O)c1cccc(C(=O)Nc2cccc3c2C(=O)N(C)C3=O)c1', 'fulfilled'),
  ('O=C(c1cncc(N2CCCC3(CCNCC3)CC2)n1)N1CCCCC1', 'fulfilled'),
  ('N#Cc1cccc(CN2CC[C@@H]3CN(c4ncccn4)CCO[C@@H]3C2)c1', 'not fulfilled'),
  ('COc1ccc(CN2C[C@@H]3COC[C@@H](N4CCN(C)CC4)[C@@H]3C2)cc1', 'not fulfilled'),
  ('CCS(=O)(=O)N1CC[C@@H]2[C@@H](CCC(=O)N2CCc2ccccc2)C1', 'not fulfilled'),
  ('CC(C)(C)C(=O)N1CC[C@H]2NC(=O)N(c3ccc(F)cc3)C(=O)[C@H]21', 'not fulfilled'),
  ('NC(=O)C1=NC2=NS(=O)(=O)c3ccccc3N2N1Cc1ccc(Br)cc1', 'fulfilled'),
  ('NC(=O)C1=NC2=NS(=O)(=O)c3ccccc3N2N1Cc1ccccc1Cl', 'fulfilled'),
  ('CC(C)n1nc2c(cc1=O)CN(c1ncnc3sccc13)CC2', 'fulfilled'),
  ('c1csc(N2CCCN(c3ncnc4sccc34)CC2)n1', 'fulfilled'),
  ('NC(=O)C1=NC2=NS(=O)(=O)c3ccccc3N2N1Cc1ccc(Cl)cc1', 'fulfilled'),
  ('Cc1nc(COC[C@@H]2CC[C@H]3[C@H](CCN3C(=O)C3CC3)O2)cs1', 'not fulfilled'),
  ('O=C(c1cncc(N2CCC3(CCCNC3)C2)n1)N1CCCC1 (configuration not stated)', 'fulfilled'),
  ('NC(=O)CN(Cc1ccc(Br)cc1)C(=O)c1ccccn1', 'not fulfilled'),
  ('O=C1[C@H]2CN(CC3CCOCC3)C[C@H]2CN1c1ccsc1', 'not fulfilled'),
  ('CCCn1cc(NC(=O)c2cccc3cccnc23)ccc1=O', 'fulfilled'),
  ('O=C(CC1CC1)N[C@@H]1CN(Cc2ccoc2)C[C@@H]2CCCO[C@@H]21', 'not fulfilled'),
  ('O=C(c1cncc(N2CCC3(CCNCC3)CC2)n1)N1CCCC1', 'not fulfilled'),
  ('c1csc(N2CCN(c3ncnc4sccc34)CC2)n1', 'fulfilled'),
  ('O=C(Cc1ccccc1)N1CC[C@@H]2CNS(=O)(=O)[C@@H]2CC1', 'fulfilled'),
  ('Cc1cc(C(=O)N2CC[C@@H]3CN(C)S(=O)(=O)[C@@H]3CC2)no1', 'not fulfilled'),
  ('Cn1nc2c(cc1=O)CN(c1ncnc3sccc13)CC2', 'fulfilled');

====

targetOrTestSystem: Histidine--tRNA ligase (Leishmania infantum) (UniProt A4I591)
assayMethodText: Leishmania infantum Histidine tRNA synthetase (LdHisRS)
Format: functional
Design: scale not given: in the data most compounds retested in dose-response had high values
testSettings: 30 µM
Screen size: about 69,000 compounds; about 420 (0.61%) showed an effect of 50% or more. Shown is part of a subset that was picked to be rich in strong results.
The entries below come with measured Percent Effect values attached.
valueType: Percent Effect (%)

INSERT INTO results (linenotation, unitlabel, measuredresult) VALUES
  ('COc1ccc(CN2C[C@@H]3COC[C@]3(CN(C)C)C2)cc1', '%', 17.6),
  ('CS(=O)(=O)N1CCC2(CC1)CN(CCn1cccn1)C(=O)CO2', '%', 65.8),
  ('O=C(Nc1nccs1)c1csc(NC2CCCC2)n1', '%', 66.3),
  ('O=C(Nc1ccccn1)c1csc(NC2CCCC2)n1', '%', 28.1),
  ('Cc1ccc(C(=O)N2C[C@@H]3CC[C@H](C2)N(CC2CCC2)C3)s1', '%', 21.9),
  ('O=C(NCc1ccco1)[C@@]12CCO[C@@H]1CCN(CC1CCOCC1)C2', '%', 20),
  ('N#CCCSc1sc2c(O)cc(O)nc2c1C#N', '%', 74.2),
  ('CC(C)c1cc(NC(=O)CN2CCc3ccccc3C2)on1', '%', -2.74),
  ('Nc1nnc(SCC(=O)c2cc3c(cc2Cl)NC(=O)C3)s1', '%', 50),
  ('Cc1ccnc(OC[C@]23COC[C@H]2CN(C(=O)C2=CCCCC2)C3)n1', '%', 5.56),
  ('Cc1cc(NC(=O)CN2CCc3nn(C)c(=O)cc3C2)on1', '%', 56.7),
  ('COCC(=O)N1CCC2(CC1)NC(=O)[C@H]1CN(C(=O)N(C)C)C[C@H]12', '%', 25.2),
  ('CCn1nc2c(cc1=O)CN(CC(=O)N(C)c1nccs1)CC2', '%', 5.56),
  ('CC(C)c1cc(NC(=O)CN2CCc3nn(C)c(=O)cc3C2)on1', '%', 78.8),
  ('C1CC(CN2C[C@@H]3C[C@@H](c4nnc(C5CC5)o4)O[C@@H]3C2)CCO1', '%', 11.1),
  ('Cc1nnc(SCC(=O)c2cc3c(cc2Cl)NC(=O)C3)s1', '%', 2.63),
  ('CC(C)=CCN1C[C@H]2CC[C@@H]1CN(C(=O)Cn1c(C)cc(C)nc1=O)C2', '%', 23.8),
  ('O=S(=O)(c1cccs1)N1CCN2C[C@H](OCC3CC3)C[C@H]2C1', '%', 10.5),
  ('CCCn1nc2c(cc1=O)CN(CC(=O)Nc1cc(C)no1)CC2', '%', 18.2),
  ('CSc1nsc(SCC(=O)c2cc3c(cc2Cl)NC(=O)C3)n1', '%', 13.2),
  ('CC(=O)c1ccc(C(=O)N2C[C@@H]3CC[C@H](C2)N(CC2CCC2)C3)s1', '%', 19.2),
  ('Cn1nc2c(cc1=O)CN(CC(=O)Nc1cc(C(C)(C)C)no1)CC2', '%', 112),
  ('CCn1nc2c(cc1=O)CN(CC(=O)Nc1cc(C)no1)CC2', '%', 15.2);

====

Examples of compounds with documented Percent Effect follow.
targetOrTestSystem: Histidine--tRNA ligase (Leishmania infantum) (UniProt A4I591)
assayMethodText: Leishmania infantum Histidine tRNA synthetase (LdHisRS)
Format: functional
Parameters: scale not given: in the data most compounds retested in dose-response had high values
testSettings: 30 µM
About 420 (0.61%) of roughly 69,000 compounds showed an effect of 50% or more. Many of the other results were omitted from the sample, so strong results are more common in it than they were.
valueType: Percent Effect

INSERT INTO measurements (linenotation, targetortestsystem, measuredresult) VALUES
  ('CNC(=O)[C@@H]1COC[C@H]2CN(C(=O)c3ccc(C)c(F)c3)C[C@H]21', 'Histidine--tRNA ligase (Leishmania infantum) (UniProt A4I591)', '12.3%'),
  ('Nc1ccnc(-c2cc(NC3CCNCC3)nc3[nH]ccc23)c1', 'Histidine--tRNA ligase (Leishmania infantum) (UniProt A4I591)', '41%'),
  ('CC(C)n1nc2c(cc1=O)CN(c1ncnc3ccsc13)CC2', 'Histidine--tRNA ligase (Leishmania infantum) (UniProt A4I591)', '11.7%'),
  ('CO[C@H]1CCN(C(=O)c2ccsc2)[C@@H]2CN(CC3CC3)C[C@H]12', 'Histidine--tRNA ligase (Leishmania infantum) (UniProt A4I591)', '5.77%'),
  ('COc1ncc(-c2cc(NC3CCCC3)nc3[nH]ccc23)c(OC)n1', 'Histidine--tRNA ligase (Leishmania infantum) (UniProt A4I591)', '21.3%'),
  ('CNc1cc(C)nc(-c2cc(NC3CCNCC3)nc3[nH]ccc23)n1', 'Histidine--tRNA ligase (Leishmania infantum) (UniProt A4I591)', '32.6%'),
  ('COc1ccnc(N2C[C@@H]3CC[C@H](C2)N(CC2CCC2)C3=O)n1', 'Histidine--tRNA ligase (Leishmania infantum) (UniProt A4I591)', '19.4%'),
  ('Cc1nnc([C@@]23CCO[C@@H]2CCN(Cc2nccs2)C3)o1', 'Histidine--tRNA ligase (Leishmania infantum) (UniProt A4I591)', '7.92%'),
  ('Cn1ccnc1CN1CCN(c2ncnc3ccsc23)CC1', 'Histidine--tRNA ligase (Leishmania infantum) (UniProt A4I591)', '11%'),
  ('COCC(=O)N1C[C@@H](OCc2cccnc2)[C@H]2OCCC[C@@H]21', 'Histidine--tRNA ligase (Leishmania infantum) (UniProt A4I591)', '14.6%'),
  ('c1ccc(COC[C@H]2CC[C@H]3[C@H](CCN3Cc3ccccn3)O2)nc1', 'Histidine--tRNA ligase (Leishmania infantum) (UniProt A4I591)', '10%'),
  ('CC(C)n1nc2c(cc1=O)CN(c1ncnc3ccccc13)CC2', 'Histidine--tRNA ligase (Leishmania infantum) (UniProt A4I591)', '18.9%'),
  ('CCN1C[C@H]2CCN(C(=O)Cc3cccc(OC)c3)CC[C@H]2S1(=O)=O', 'Histidine--tRNA ligase (Leishmania infantum) (UniProt A4I591)', '19.2%'),
  ('Cc1ccn(C)c(=O)c1NC(=O)N(C)Cc1cccc(OC(C)C)c1', 'Histidine--tRNA ligase (Leishmania infantum) (UniProt A4I591)', '77.5%'),
  ('COc1cc(N2C[C@@H]3COC[C@]3(C(=O)NCc3ccccn3)C2)ncn1', 'Histidine--tRNA ligase (Leishmania infantum) (UniProt A4I591)', '5.26%'),
  ('O=C1NC[C@@]2(C(=O)O)CN(Cc3ccc(Oc4ccccc4)cc3)C[C@@H]12', 'Histidine--tRNA ligase (Leishmania infantum) (UniProt A4I591)', '12.1%'),
  ('COc1nccnc1-c1cc(NC2CCCC2)nc2[nH]ccc12', 'Histidine--tRNA ligase (Leishmania infantum) (UniProt A4I591)', '6.38%'),
  ('CN1C(=O)[C@H]2CC[C@@H]1CN(c1ncnc3ccsc13)C2', 'Histidine--tRNA ligase (Leishmania infantum) (UniProt A4I591)', '19.8%'),
  ('O=C(NCc1cccnc1N1CCc2ccccc2C1)c1cc(=O)[nH][nH]1', 'Histidine--tRNA ligase (Leishmania infantum) (UniProt A4I591)', '50%'),
  ('COc1nccnc1-c1cc(NC2CCNCC2)nc2[nH]ccc12', 'Histidine--tRNA ligase (Leishmania infantum) (UniProt A4I591)', '55.3%'),
  ('O=C(c1ccccc1)N1C[C@@H]2CCCO[C@@H]2[C@H](N2CCCC2)C1', 'Histidine--tRNA ligase (Leishmania infantum) (UniProt A4I591)', '22.8%'),
  ('Cc1nc([C@@H]2C[C@@H]3CCN(C(=O)Cc4cccc(F)c4)C[C@H]3O2)no1', 'Histidine--tRNA ligase (Leishmania infantum) (UniProt A4I591)', '9.09%');
